molecular target: human GLP-1 receptor (human, UniProt P43220 24-463); test: cell-based or functional assay
Numbered stars: 1 amine (or outer) side, 2 acyl side, 3 side chain; on linkers, the order of the positions; unused ones are H or OH. Square brackets hold non-standard residues; d marks the D form. Side chains are listed from the residue outwards. * marks the point of attachment. C20 diacid = O=C(O)CCCCCCCCCCCCCCCCCCC(=O)*; C18 diacid = O=C(O)CCCCCCCCCCCCCCCCC(=O)*; C16 diacid = O=C(O)CCCCCCCCCCCCCCC(=O)*; γGlu = O=C(O)[C@H](CCC(=O)[*:2])N[*:1]; Chem. 28 = not defined here; Chem. 29 = not defined here; AEEA = NCCOCCOCC(=O)O; Aib = CC(C)(N)C(=O)O
measured.parameter: hGLP-1R Potency, 1% HSA, EC50 [pM]

# binder, test.value
rows = [
    ("Compound 87 (peptide) peptide: H[Aib]HGTFTSDYSILLEEQAAREFIEWLLAGGPSSGEASHLSTAALGRLSAK([AEEA-AEEA-γGlu-C18 diacid])LHRLATLPRTETGSGSP-NH2", "39.3 pM"),
    ("Compound 53 (reading uncertain) peptide: Y[Aib]EGTFTSDYSILLEEQAAREFIEWLLAGGPSSGAGQAPGQAPGASHLSTAALGRLSAELHK(Chem. 28)LATLPRTETGSGSP-NH2", "79.2 pM"),
    ("Compound 62 (peptide) peptide: H[Aib]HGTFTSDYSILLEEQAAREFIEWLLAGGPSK([AEEA-AEEA-γGlu-C16 diacid])GEASQLSTAALGRLSAELHRLADLPRTETGSGSP-NH2", "11.5 pM"),
    ("Compound 100 (reading uncertain) peptide: H[Aib]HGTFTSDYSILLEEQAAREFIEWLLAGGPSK(Chem. 28)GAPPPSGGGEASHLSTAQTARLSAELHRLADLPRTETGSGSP-NH2", "307 pM"),
    ("Compound 86 (peptide) peptide: H[Aib]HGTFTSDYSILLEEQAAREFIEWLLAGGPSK([AEEA-AEEA-γGlu-C18 diacid])GAPPPSGGGASELSTAALGRLSAELHRLATLPRTETGSGSP-NH2", "130 pM"),
    ("Compound 94 (peptide) peptide: Y[Aib]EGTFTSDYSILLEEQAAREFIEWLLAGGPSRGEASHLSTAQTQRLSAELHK([AEEA-AEEA-γGlu-C20 diacid])LATLPRTETGSGSP-NH2", "130 pM"),
    ("Compound 114 (peptide) peptide: Y[Aib]EGTFTSDYSILLEEQAAREFIEWLLAGGPSSGAGQAPGQAPGASHLSTAALARLSAELHK([AEEA-AEEA-γGlu-C18 diacid])LATLPRTETGSGSP-NH2", "126 pM"),
    ("Compound 102 (reading uncertain) peptide: Y[Aib]EGTFTSDYSILLEEQAAREFIEWLLAGGPSSGAGQAPGQAPGASHLSTAQTQRLSAELHQLK(Chem. 28)TLPRTETGSGSP-NH2", "47 pM"),
    ("Compound 52 (reading uncertain) peptide: Y[Aib]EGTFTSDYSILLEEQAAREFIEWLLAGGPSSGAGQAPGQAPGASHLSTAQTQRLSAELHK(Chem. 28)LATLPRTETGSGSP-NH2", "26.9 pM"),
    ("Compound 10 (reading uncertain) peptide: Y[Aib]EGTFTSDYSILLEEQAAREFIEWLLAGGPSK(Chem. 29)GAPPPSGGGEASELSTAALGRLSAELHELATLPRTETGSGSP-NH2", "246 pM"),
    ("Compound 45 (reading uncertain) peptide: H[Aib]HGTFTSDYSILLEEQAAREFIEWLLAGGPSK(Chem. 28)GALAQTLGTNEASHLSTAQTQRLSAELHELATLPRTETGSGSP-NH2", "112 pM"),
    ("Compound 96 (peptide) peptide: Y[Aib]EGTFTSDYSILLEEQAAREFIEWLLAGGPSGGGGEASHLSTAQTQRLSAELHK([AEEA-AEEA-γGlu-C20 diacid])LATLPRTETGSGSP-NH2", "162 pM"),
    ("Compound 78 (peptide) peptide: H[Aib]HGTFTSDYSILLEEQAAREFIEWLLAGGPSSGAGQAPGQAPGASHLSTAQTQRLSAK([AEEA-AEEA-γGlu-C18 diacid])LHRLATLPRTETGSGSP-NH2", "17.8 pM"),
    ("Compound 99 (not fully specified (residue 62)) peptide: Y[Aib]EGTFTSDYSILLEEQAAREFIEWLLAGGPSSGALQAPGQAPLASHLSTAQTQRLSAELHKLATLPRTETGSGSP-NH2", "36.2 pM"),
    ("Compound 16 (peptide) peptide: H[Aib]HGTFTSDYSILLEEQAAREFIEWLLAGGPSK([AEEA-AEEA-γGlu-C20 diacid])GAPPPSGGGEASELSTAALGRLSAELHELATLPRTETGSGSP-NH2", "238 pM"),
    ("Compound 59 (peptide) peptide: Y[Aib]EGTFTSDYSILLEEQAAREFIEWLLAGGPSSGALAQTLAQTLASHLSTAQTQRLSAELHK([AEEA-AEEA-γGlu-C16 diacid])LATLPRTETGSGSP-NH2", "39.8 pM"),
]
